# Tested on: IGROV1 ovarian
# PROTOCOL TEXT: NCI tumour cell line growth inhibition, 48 h

COMPOUND	GI50
Cc1ccc(CS/C(=C\c2ccc([N+](=O)[O-])cc2)C(=O)c2ccc(F)cc2)cc1	4.49 µM
COc1ccc(/C(=C2\O[C@@H]([C@H]3COC(C)(C)O3)[C@H]3OC(C)(C)O[C@@H]23)c2cc(OC)c(OC)c(OC)c2)cc1O	33.2 µM
Cc1c(C(=O)N/N=C/c2ccc(Cl)cc2)nnn1-c1ccnc2c(C(F)(F)F)cccc12	9.06 µM
N#CSCC1CC(O)(c2ccccc2)C(c2ccccc2)C(c2ccc(Cl)cc2)O1 (centres undefined)	2 µM
CNC(=O)OCc1c(COC(=O)NC)c(-c2ccc(Cl)c(Cl)c2)n2c1SCC2	3.16 µM
COc1ccc(C2=NN(C(=O)c3cc(OC)c(OC)c(OC)c3)C(c3ccc(C#N)cc3)C2)cc1OC (centres undefined)	1.18 µM
CC(C)CC(=O)[O-].CC(C)CC(=O)[O-].N.N.N.N.[Co+3].[O-][Cl+3]([O-])([O-])[O-]	> 100 µM
NCC(=O)NS(=O)(=O)OC[C@H]1O[C@@H](n2cnc3c(N)ncnc32)[C@H](O)[C@@H]1O	3.04 µM
CCNCCNc1cc(-c2ccc(C(=O)OC)cc2)c(C#N)c2nc3ccccc3n12	2.38 µM

====

Let's look at some molecules and their measured TGI.
# System: NCI-H460 lung
# PROTOCOL TEXT: NCI tumour cell line growth inhibition, 48 h
*1 amine or outer side, *2 acyl side, *3 side chain or, on linkers, in order; H or OH if unused. Where a SMILES comes first, the peptide text is derived from it. Bridges are numbered along the chain shown (N, C = ends). [ ]: non-standard residue; d: D form. The star is where a group is joined. ξ: configuration not given here. X34 = O=C(C(CCCCNO[*:3])N[*:1])[*:2]; Fmoc = O=C(OCC1c2ccccc2-c2ccccc21)*; ξW = NC(Cc1c[nH]c2ccccc12)C(=O)O; ξP = O=C(O)C1CCCN1
MEASURED ATTRIBUTE: TGI (µM)

MOLECULE	VALUE UNITS	LT GT EQ	MEASUREMENT
O=C(NNC(=S)Nc1ccc(Cl)cc1)c1cc(-c2ccccc2)nc2ccccc12	µM	=	25.6
Cc1c(F)c(N)c2c(=O)cc(-c3ccc(NC(=O)CN(C)C)c(F)c3)oc2c1F	µM	>	100
CCOc1ccc2c(c1)[n+]([O-])c(S(=O)(=O)c1ccc(C)cc1)c(N)[n+]2[O-]	µM	>	100
CC1=C(C(=O)Nc2ccc3[nH]ncc3c2)C(c2ccc3ccccc3c2)CC(=O)N1 (stereo not given)	µM	>	25
COCOC1/C=C/CCCC#C[C@H](C)C(=O)CC1 (stereo not given in full)	µM	=	25.5
N=C1CSC2=NC3=C(CCC/C3=C\c3ccccc3)C(c3ccccc3)N12 (stereo not given)	µM	=	14.7
N#Cc1ccc(C#Cc2ccccc2C#CCCCCO)cc1	µM	=	49
Cc1cc(I)cc(CNCCCN2CCSCC2)c1O	µM	=	29.5
NC(=O)CNC(=O)C1CCCN1C(=O)C1CCCCNOC(=O)CC[C@@H](NC(=O)OCC2c3ccccc3-c3ccccc32)C(=O)NC(Cc2c[nH]c3ccccc23)C(=O)N1 (stereo not given in full) (Fmoc-[dE][ξW][X34][ξP]G-NH2; ester 1-3)	µM	>	100
CC(C)OP(=O)(OC(C)C)c1c(Nc2ccccc2)n[nH]c1N	µM	>	100
Cc1cc2c(cc1C)[n+](=O)c(C(=O)CC(=O)C(=O)Nc1c(C(C)C)cccc1C(C)C)c(C)n2[O-]	µM	>	100
COc1cc(O)c(/C=N/N=C(\N)NO)c(OC)c1	µM	>	10
COC(=O)C1(C(=O)OC)CC2=C(S(=O)(=O)c3ccccc3)C[C@H](S(=O)(=O)c3ccccc3)[C@H]2C1	µM	>	100
COc1ccc(OC)c(NC(=O)C(=O)C(C(C)=O)c2nc3ccc(Cl)cc3[nH]c2=O)c1 (stereo not given)	µM	>	50
COc1ccc(N2C(=O)C3c4[nH]c5ccc(OCc6ccccc6)cc5c4C4CCC(C(C)(C)C)CC4C3C2=O)cc1 (stereo not given)	µM	>	100
Cc1ccc2c(c1)C(=O)/C(=C/c1ncc([N+](=O)[O-])n1C)O2	µM	=	5.97
NC(C(F)(F)F)(C(F)(F)F)P(=O)(Cc1ccccc1)Cc1ccccc1	µM	>	100
CN(C)CCNc1cc(-c2ccccc2)nc2ccccc12	µM	=	12.8
NCC(=O)NS(=O)(=O)OC[C@H]1O[C@@H](n2cnc3c(N)ncnc32)[C@H](O)[C@@H]1O	µM	=	10.1
CCCCN(CCCC)C(=O)C(=O)C(C#N)c1ccc(C)cc1 (stereo not given)	µM	>	100

====

# Test system: SK-OV-3 ovarian
# PROTOCOL TEXT: NCI tumour cell line growth inhibition, 48 h

MOLECULE	SYSTEM TESTED	TGI
C=C(C(=O)C(=O)Oc1ccc(Cl)cc1)C(=O)c1ccc(C)cc1	SK-OV-3 ovarian	> 100 µM
C=CCN1C(=O)/C(=C/c2ccccc2)N=C1SC1OC(COC(=O)c2ccccc2)C(OC(=O)c2ccccc2)C1OC(=O)c1ccccc1 (centres undefined)	SK-OV-3 ovarian	> 100 µM
O=C1/C(=C/c2ccc(Br)cc2)C=C(c2ccccc2)N1CCc1ccccc1	SK-OV-3 ovarian	5 µM
Cc1ccc(C)c(NC(=O)CC/C(=N\NC(=O)C(=O)NN)C(C)C(=O)c2ccc(O)cc2)c1 (centres undefined)	SK-OV-3 ovarian	> 100 µM
CC(C)Sc1nc(C#N)cc2c1CCCC2	SK-OV-3 ovarian	> 100 µM
C[C@]12CC[C@@H]3c4ccc(O)cc4CC[C@H]3[C@@H]1C/C(=C\c1ccncc1)C2=O	SK-OV-3 ovarian	> 100 µM
COc1ccc(-c2cc(-c3ccco3)c(C#N)c(=S)n2C2OC(COC(C)=O)C(OC(C)=O)C(OC(C)=O)C2OC(C)=O)cc1 (centres undefined)	SK-OV-3 ovarian	26.8 µM
COC(=O)C1(C(=O)OC)CC2=C(S(=O)(=O)c3ccccc3)C[C@H](S(=O)(=O)c3ccccc3)[C@H]2C1	SK-OV-3 ovarian	> 100 µM
O=C(O)c1c2c(cc3c1CC1(Cc4ccccc4C1)C3)CCC2	SK-OV-3 ovarian	> 100 µM

====

The following molecules are listed with their measured TGI values.
# System: SF-268 CNS
# PROTOCOL TEXT: NCI tumour cell line growth inhibition, 48 h
*1 amine or outer side, *2 acyl side, *3 side chain or, on linkers, in order; H or OH if unused. Where a SMILES comes first, the peptide text is derived from it. Bridges are numbered along the chain shown (N, C = ends). [ ]: non-standard residue; d: D form. The star is where a group is joined. ξ: configuration not given here. X34 = O=C(C(CCCCNO[*:3])N[*:1])[*:2]; Fmoc = O=C(OCC1c2ccccc2-c2ccccc21)*; ξW = NC(Cc1c[nH]c2ccccc12)C(=O)O; Boc = CC(C)(C)OC(=O)*; ξP = O=C(O)C1CCCN1
MEASURED ATTRIBUTE: TGI (µM)

MOLECULE	SYSTEM TESTED	LT GT EQ	MEASUREMENT
O=C(O)CC/C(=N\Nc1nsc2ccccc12)c1ccccc1	SF-268 CNS	>	100
COCCOCOc1ccc(OCc2ccccc2)cc1	SF-268 CNS	>	100
OCCCCCNc1c2ccccc2nc2ccccc12	SF-268 CNS	=	11.4
CC12CC[C@@H](C(C)(C)O)C1[C@@H](O)CC1(C)C2CCC2[C@@]3(C)CC[C@H](O)C(C)(C)C3C(O)C[C@]21C (stereo partly specified)	SF-268 CNS	=	39.7
C#CCCCCC#Cc1ccccc1C(=O)OC	SF-268 CNS	>	100
CC1=C(O)C(=O)[C@@H]2O[C@@H]2C1=O	SF-268 CNS	=	30.5
COC(=O)CNC(=O)C(Cc1ccccc1)NC(=O)C(CCSC)NC(=O)C(Cc1ccc(O)cc1)NC(=O)OC(C)(C)C (stereo unspecified) (Boc-YMFG-OMe; configuration not given here)	SF-268 CNS	=	87.7
CC(=O)Nc1ccccc1Sc1ccccc1	SF-268 CNS	>	100
N#C/C(=C1C=C/C(=N/O)C(Br)=C/1)c1ccccc1	SF-268 CNS	=	11.7
O=C1CCC[C@@H]2NC[C@@H](c3ccc4c(c3)OCO4)[C@H]12	SF-268 CNS	>	25
CCNCCNc1cc(-c2ccc(C(=O)OC)cc2)c(C#N)c2nc3ccccc3n12	SF-268 CNS	=	16.2
CNC(=O)OCc1c(COC(=O)NC)c(-c2ccc(Cl)c(Cl)c2)n2c1SCC2	SF-268 CNS	=	32.9
O=C(O)CCCCC(CCSCc1ccccc1)SCc1ccccc1 (stereo unspecified)	SF-268 CNS	>	100
Cc1ccc(S(=O)(=O)C(CC(=O)N2CCCC2)C(=O)c2ccccc2)cc1 (stereo unspecified)	SF-268 CNS	>	100
NC(=O)CNC(=O)C1CCCN1C(=O)C1CCCCNOC(=O)CC[C@@H](NC(=O)OCC2c3ccccc3-c3ccccc32)C(=O)NC(Cc2c[nH]c3ccccc23)C(=O)N1 (stereo partly specified) (Fmoc-[dE][ξW][X34][ξP]G-NH2; ester 1-3)	SF-268 CNS	>	100
CC(CN1c2ccccc2Sc2ccccc21)N(C)C (stereo unspecified)	SF-268 CNS	=	33.5
CCc1c(Oc2ccc(C(C)=O)cc2)c2ccccc2[nH]c1=O	SF-268 CNS	=	61
COc1cc(OC)cc(-c2ccc(-c3ccc(C(=N)N)o3)o2)c1	SF-268 CNS	=	13.2
N#CC1(Cc2ccc(N)cc2)c2ccccc2C=CN1C(=O)c1ccccc1 (stereo unspecified)	SF-268 CNS	>	100
COC(=O)c1cc2c3ccccc3[nH]c2c2ncccc12	SF-268 CNS	>	100
O=C(O)c1c2c(cc3c1CC1(Cc4ccccc4C1)C3)CCC2	SF-268 CNS	>	100
